# Test system: ABCA1 mRNA
# experiment description: ABCA1 mRNA induction in THP-1 cells, QuantiGene branched DNA assay
# Assay type: cell-based
# condition info: Homo sapiens, 10 μM test compound, 18-20 hours, read-out: ABCA1 Induction Fold Increase over DMSO Vehicle
quantity: fold induction at 10 µM
Give only the figure.

Answered examples (3):
{"columns": ["compound string", "target entity", "quantity", "reported"],
 "data": [
  ["CC1(C)c2cc(-c3nc(C(=O)O)co3)ccc2N[C@@H]2c3c(F)cccc3OC[C@@H]21", "ABCA1 mRNA", "fold induction at 10 µM", 2],
  ["CCCCN1c2ccccc2C(C)(C)[C@@H]2COc3cccc(OC)c3[C@H]21", "ABCA1 mRNA", "fold induction at 10 µM", 1.5],
  ["COc1ccc2c(c1)C(C)(C)[C@@H]1COc3cccc(OC)c3[C@H]1N2C", "ABCA1 mRNA", "fold induction at 10 µM", 2.9]
]}

Next up:
Req: I'd like to know its fold induction at 10 µM. The compound in question is "COc1cccc2c1[C@H]1Nc3ccc(C(=O)N4CCNCC4)cc3C(C)(C)[C@H]1CO2"
Resp: 5.1

Measured values drawn from patent US7432276B2 for this set.
